experiment: chemical genetic growth profiling, strain panel (AID 1159580);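 also: tested at 20 µM; growth read once vehicle control cultures reached saturation at 30 °C; 1 = growth at the plate median or of vehicle wells; lower values mean less growth of the strain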; conditions: S. cerevisiae deletion strains, growth OD, locus YNL175C, strain NOP13, stronger effect = lower value
In all, about 5,500 compounds went through this assay and about 2,000 (36%) were called active. About 18% were inconclusive and are not listed. This is one part of the list.
attribute measured: normalized growth

molecule | reported value
Cc1cc(NC(=O)Nc2ccc3c(ccn3C)c2)sn1 | 1.02
O=c1[nH]c2cc([N+](=O)[O-])c([N+](=O)[O-])cc2[nH]c1=O | 1.01
CN1CCN2c3ccccc3Cc3ccccc3C2C1 (configuration not stated) | 1.02
CC(N)Cc1c[nH]c2ccc(OCc3cccs3)cc12 (configuration not stated) | 0.986
CCCCc1ccc(C(=O)O)nc1 | 0.988
CCN(CC)CCNC(=O)c1ccc(NC(C)=O)cc1 | 0.983
CN1CCN(C2Cc3ccccc3Sc3ccc(Cl)cc32)CC1 (configuration not stated) | 0.915
CN(C)CC/C=C1\c2ccccc2COc2ccccc21 | 1.02
COCCOC(=O)C1=C(C)NC(C)=C(C(=O)OC(C)C)C1c1cccc([N+](=O)[O-])c1 (configuration not stated) | 0.962
Cn1c(=O)c2[nH]c(C3CCCC3)nc2n(C)c1=O | 0.977
CN(C)CCC=C1c2ccccc2CCc2ccccc21 | 1.01
CC(=O)C(C)=O | 0.994

###

experiment: chemical genetic growth profiling, strain panel (AID 1159580);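 also: tested at 20 µM; growth read once vehicle control cultures reached saturation at 30 °C; 1 = growth at the plate median or of vehicle wells; lower values mean less growth of the strain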; details: S. cerevisiae deletion strains, growth OD, locus YPL240C, strain hsp82
About 2,000 (36%) of roughly 5,500 compounds were called active. Roughly 18% stayed inconclusive and do not appear here. Rule as the data show it: active = normalized growth mostly below about 0.91 (no sharp cut-off); inconclusive = no clear call, values can overlap the other calls; inactive = mostly above about 0.92. This is one part of the list.
Outcome codes: TRUE (active), FALSE (inactive)

compound | group label
CN(C)CC/C=C1/c2ccccc2COc2ccccc21 | FALSE
COc1ccc(-c2cc(=O)c3c(O)c(OC)c(OC)c(OC)c3o2)cc1 | FALSE
CN(C)CCC=C1c2ccccc2C=Cc2ccccc21 | FALSE
O=C(O)c1cn(-c2ccc(F)cc2)c2cc(N3CCNCC3)c(F)cc2c1=O | FALSE
CCn1cc(C(=O)O)c(=O)c2cc(F)c(N3CCNCC3)cc21 | FALSE
Cn1nnnc1SCC1=C(C(=O)O)N2C(=O)C(NC(=O)C(O)c3ccccc3)C2SC1 (stereo not given) | FALSE
COc1ccc(-c2cc(=O)c3ccccc3o2)cc1 | TRUE
COC(=O)C1=C(C)NC(C)=C(C(=O)OCCN(C)Cc2ccccc2)C1c1cccc([N+](=O)[O-])c1 (stereo not given) | FALSE
CN(C)CCC=C1c2ccccc2CCc2ccccc21 | FALSE
N[C@H](CO)Cc1ccccc1 | FALSE
NCC(=O)CCC(=O)O | FALSE
COC(=O)C1=C(C)NC(C)=C(C(=O)OC)C1c1ccccc1[N+](=O)[O-] | TRUE
COc1ccc(C(=O)/C=C/c2ccccc2)cc1 | FALSE
CC1=NCCc2c1[nH]c1cc(O)ccc21 | FALSE
CCOC(=O)C1C(C=C(C)C)C1(C)C (stereo not given) | FALSE
COc1ccc(-c2cc(=O)c3cc(OC)ccc3o2)cc1 | FALSE
CC[C@]12C=CCN3CC[C@@]4(c5ccc(OC)cc5N(C)C4[C@@](O)(C(=O)OC)[C@@H]1OC(C)=O)[C@@H]32 (stereo not given in full) | FALSE
COCCOC(=O)C1=C(C)NC(C)=C(C(=O)OC(C)C)C1c1cccc([N+](=O)[O-])c1 (stereo not given) | FALSE
CC(=O)O[C@H]1C[C@H](O[C@H]2[C@@H](O)C[C@H](O[C@H]3[C@@H](O)C[C@H](O[C@H]4CC[C@@]5(C)C(CCC6C5C[C@@H](O)[C@]5(C)[C@@H](C7=CC(=O)OC7)CC[C@]65O)C4)O[C@@H]3C)O[C@@H]2C)O[C@H](C)[C@H]1O[C@@H]1O[C@H](CO)[C@@H](O)[C@H](O)[C@H]1O (stereo not given in full) | FALSE
CNCCC=C1c2ccccc2CCc2ccccc21 | FALSE
